Biological target: L-lactate dehydrogenase (Plasmodium falciparum (isolate CDC / Honduras))
Test: PfLDH activity inhibition – cell lysate, 3D7 strain, counter-screen for P. falciparum growth inhibition project (AID 2304);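 also: 0% = vehicle and 100% = reference inhibitor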
Conditions: P. falciparum 3D7 crude extract, LDH APAD/NBT absorbance; at 2 µM; stronger effect = higher value
# inhibition values compiled below
endpointLabel: inhibition (%)

> print(dat)
                                    compound  endpointlabel  observedvalue
 1  Oc1ccccc1CNCc1ccc(-c2cnc(N3CCCC(c4ccccc4)C3)nc2)cc1 (centres undefined)     inhibition             -4
 2  CCNC(=O)c1ccc2c(c1)c(C)c(C)n2Cc1ccc(F)cc1     inhibition             -1
 3  CC1(CCCCN2CCC(c3c[nH]c4cnccc34)CC2)C(=O)Nc2cccc(Cl)c21 (centres undefined)     inhibition              0
 4           CC(=NNC(=S)NCCc1ccccn1)c1ccccn1     inhibition             -3
 5                  CC(=O)c1cc(N2CCCC2)ccc1N     inhibition             -2
 6  CCOc1ccc2ccccc2c1CNCCCCCCNCc1c(OCC)ccc2ccccc12     inhibition             -2
 7  Cc1ccc(Nc2nccc(N(C)c3ccc4c(c3)nc(NC(=O)Cc3ccc(Cl)c(Cl)c3)n4C)n2)cc1S(N)(=O)=O     inhibition              0
 8             Fc1cccc(C=NNc2ccnc3ccccc23)c1     inhibition              7
 9  CCCN(c1ccc(C(F)(F)F)cc1[N+](=O)[O-])S(=O)(=O)C(c1ccccc1)c1ccc(C(F)(F)F)cc1[N+](=O)[O-] (centres undefined)     inhibition              1
10  COC(=O)c1ccc(CC(C)NCC(O)c2ccc(C(O)CNC(C)Cc3ccc(C(=O)OC)cc3)cc2)cc1 (centres undefined)     inhibition              1
11  N=C(N)c1cc(Cl)cc(NC(=O)Nc2cc(Cl)cc(C(=N)N)c2)c1     inhibition             -7
12      Nc1nc(N)c2c(ccc3c2ccn3CCCC(F)(F)F)n1     inhibition              0
13  CC(=O)Nc1nc(C)c(-c2csc(Nc3ccc(Cl)cc3)n2)s1     inhibition              0
14  CNC(=O)c1ccccc1Nc1nc(Nc2ccc(N3CCOCC3)cc2)ncc1Cl     inhibition             -3
15  COc1cc(/C=C/C(=O)NCC(CCNc2cc(=O)c3ccccc3[nH]2)NCc2cc(Br)cc(Br)c2)cc(OC)c1 (centres undefined)     inhibition             -4
16  CC(C)C[C@H](NC(=O)c1cc2ccccc2s1)C(=O)N[C@H]1CCN(Cc2ccc(OC[C@@H]3CCCN3C)c3ccccc23)C1     inhibition             -2
17  O=C(NC1CCCCC1)N(Cc1cccc(-c2ccc(CNCCc3ccccc3)cc2)c1)C1CCN(Cc2ccccc2)CC1     inhibition              4
18  C[C@@H](N=C(Nc1ccc(-c2ccccc2)cc1)Nc1ccc(C#N)cc1O)c1ccc(Br)cc1     inhibition              2
19  COc1ccc2nccc(NC(=O)N3CCC(NCCOc4cc(F)cc(F)c4)CC3)c2n1     inhibition             -2
20                  O=c1c2cccnc2sn1-c1ccccc1     inhibition              0
21  Oc1ccc(CN2CCC(NCc3cccc(C(F)(F)F)c3)CC2)cc1     inhibition              5
22  CC(CN(C)C)C(=O)Nc1ccc(-c2ccc(-c3nc4ccc(C(F)(F)F)cc4[nH]3)cc2)cc1 (centres undefined)     inhibition              2
23  CCOc1ccc(CNCCCCCCNCc2ccc(OCC)c3ccccc23)c2ccccc12     inhibition             -4
24      Cc1nc2nc(N)nc(N)c2c(C)c1Cc1ccc(N)cc1     inhibition             -4

Data credit: PubChem BioAssay
